target: Mitogen-activated protein kinase 10 (Homo sapiens); assay: Kinase Assay; settings: 37 °C
Sequence (P53779 whole entry): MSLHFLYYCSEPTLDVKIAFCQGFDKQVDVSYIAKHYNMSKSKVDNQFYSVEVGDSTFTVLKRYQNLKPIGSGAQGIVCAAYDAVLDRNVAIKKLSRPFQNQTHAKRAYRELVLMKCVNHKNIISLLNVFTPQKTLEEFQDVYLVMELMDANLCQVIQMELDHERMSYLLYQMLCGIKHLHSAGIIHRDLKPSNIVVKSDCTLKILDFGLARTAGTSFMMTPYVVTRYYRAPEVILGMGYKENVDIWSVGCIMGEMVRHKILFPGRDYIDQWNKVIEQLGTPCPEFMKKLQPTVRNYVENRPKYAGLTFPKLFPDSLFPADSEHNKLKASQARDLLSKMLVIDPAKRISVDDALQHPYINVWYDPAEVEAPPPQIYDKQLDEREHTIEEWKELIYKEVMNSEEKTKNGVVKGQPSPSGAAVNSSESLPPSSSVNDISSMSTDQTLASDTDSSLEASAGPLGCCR
ENDPOINT LABEL: IC50
State the result as a value with its unit after it.

Known results for molecules:
MOLECULE	SYSTEM TESTED	ENDPOINT LABEL	REPORTED
O=c1c(O)c(-c2ccc(O)c(O)c2)oc2cc(O)cc(O)c12	Mitogen-activated protein kinase 10 (Homo sapiens)	IC50	2.31 µM
O=c1c(O)c(-c2ccc(O)c(O)c2)oc2cc(O)ccc12	Mitogen-activated protein kinase 10 (Homo sapiens)	IC50	2.6 µM
COc1c(O)cc2oc(-c3ccc(O)c(O)c3)c(O)c(=O)c2c1O	Mitogen-activated protein kinase 10 (Homo sapiens)	IC50	60.9 µM
O=c1cc(O)cc2oc(-c3ccc(O)c(O)c3)c(O[C@@H]3O[C@H](CO)[C@@H](O)[C@H](O)[C@H]3O)c(O)c1-2 [Quercetin 3-O-beta-D-glucoside]	Mitogen-activated protein kinase 10 (Homo sapiens)	IC50	21.7 µM
O=c1c(O)c(-c2cc(O)c(O)c(O)c2)oc2cc(O)cc(O)c12	Mitogen-activated protein kinase 10 (Homo sapiens)	IC50	2.24 µM

Prompt line: For the molecule "O=c1c(O)c(-c2ccc(O)cc2)oc2cc(O)cc(O)c12" , what IC50 is on record?
Response line: 19.1 µM

----------
Parameter IC50: see the listing below.
molecular target: Mitogen-activated protein kinase 14 (Homo sapiens, UniProt Q16539); assay: Kinase Assay; conditions: 37 °C
Sequence (Q16539 whole entry): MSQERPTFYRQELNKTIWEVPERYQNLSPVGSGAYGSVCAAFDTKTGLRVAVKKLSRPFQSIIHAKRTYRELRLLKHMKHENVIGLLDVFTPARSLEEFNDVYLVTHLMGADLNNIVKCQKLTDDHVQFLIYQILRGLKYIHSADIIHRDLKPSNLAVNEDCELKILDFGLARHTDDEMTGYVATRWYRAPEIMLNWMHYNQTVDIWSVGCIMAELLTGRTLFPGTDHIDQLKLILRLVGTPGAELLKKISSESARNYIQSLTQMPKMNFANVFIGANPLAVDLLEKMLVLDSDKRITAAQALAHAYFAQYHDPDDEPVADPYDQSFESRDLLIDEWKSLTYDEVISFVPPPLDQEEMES
Report field: quantity (unit follows the number).

Record excerpt, results attached:
COMPOUND	REPORTED
COc1cc(-c2cc(=O)c3c(O)c(OC)c(O)cc3o2)ccc1O	18.9 µM
COc1ccc(-c2oc3cc(O)cc(O)c3c(=O)c2O)cc1 [Kaempferide]	32.9 µM
O=c1cc(O)cc2oc(-c3ccc(O)c(O)c3)c(O[C@@H]3O[C@H](CO)[C@@H](O)[C@H](O)[C@H]3O)c(O)c1-2 [Quercetin 3-O-beta-D-glucoside]	51.3 µM

Prompt line: GET /values?readout=IC50&item= "COc1ccc(-c2cc(=O)c3c(O)cc(OC)cc3o2)cc1"
Response line: 27.8 µM

----------
Readings of IC50 for the listed molecules
target: Mitogen-activated protein kinase 14 (Homo sapiens, UniProt Q16539); experiment: Kinase Assay; conditions: 37 °C
The response must be a number in µM with no trailing unit.

MOLECULE	SYSTEM TESTED	ENDPOINT LABEL	REPORTED
O=c1c(O)c(-c2ccc(O)cc2O)oc2cc(O)cc(O)c12	Mitogen-activated protein kinase 14 (Homo sapiens, UniProt Q16539)	IC50	11.4
O=c1c(O)c(-c2ccc(O)c(O)c2)oc2cc(O)ccc12	Mitogen-activated protein kinase 14 (Homo sapiens, UniProt Q16539)	IC50	2.7
O=c1c(O)c(-c2ccc(O)c(O)c2)oc2cc(O)cc(O)c12	Mitogen-activated protein kinase 14 (Homo sapiens, UniProt Q16539)	IC50	3.45
O=c1c(O)c(-c2ccc(O)cc2)oc2cc(O)cc(O)c12	Mitogen-activated protein kinase 14 (Homo sapiens, UniProt Q16539)	IC50	18.4
O=c1cc(-c2ccc(O)c(O)c2)oc2cc(O[C@@H]3O[C@H](CO)[C@@H](O)[C@H](O)[C@H]3O)cc(O)c12	Mitogen-activated protein kinase 14 (Homo sapiens, UniProt Q16539)	IC50	87.1

Prompt line: Endpoint output: IC50 of COc1cc(O)c2c(=O)cc(-c3ccc(O)c(OC)c3)oc2c1 [Velutin] . Value?
Response line: 52.5

Prompt line: Which IC50 value is on record for "COc1c(O)cc2oc(-c3ccc(O)c(O)c3)c(O)c(=O)c2c1O" ?
Response line: 16.3

Prompt line: Looking for the measured IC50 of "O=c1c(-c2ccc(O)cc2)coc2cc(O)cc(O)c12" , can you help?
Response line: 61.4

Prompt line: Look up IC50 for this molecule: "COc1cc(O)c2c(=O)c(O)c(-c3ccc(OC)c(O)c3)oc2c1"
Response line: 3.98

Prompt line: Could you share which IC50 value was measured for "O=c1cc(-c2ccc(O)cc2)oc2cc(O)cc(O)c12" ?
Response line: 14.3

Prompt line: I have this molecule here, "COc1c(O)cc2oc(-c3ccc(O)cc3)cc(=O)c2c1O" , and I need its recorded IC50.
Response line: 18.6

Prompt line: Value lookup for IC50; key = COc1cc(O)c2c(=O)c(OC)c(-c3ccc(O)c(O)c3)oc2c1 [3',4',5-trihydroxy-3,7-dimethoxyflavone]
Response line: 12.3

Prompt line: Consider the molecule "COc1c(O)cc2oc(-c3ccc(O)cc3)c(O)c(=O)c2c1O" and give its measured IC50.
Response line: 17.2

Prompt line: GET /values?readout=IC50&item= "C[C@@H]1O[C@@H](Oc2c(-c3ccc(O)c(O)c3)oc3cc(O)cc(=O)c-3c2O)[C@H](O)[C@H](O)[C@H]1O"
Response line: 28.1

Prompt line: Recorded IC50 of "COc1c(O)cc2oc(-c3ccc(O)c(O)c3)cc(=O)c2c1O" , please.
Response line: 22.2
